# target: FAK (Homo sapiens)
# Construct: purchased Eurofins DiscoverX KINOMEscan (scanTK)
# Sequence (Q05397 whole entry): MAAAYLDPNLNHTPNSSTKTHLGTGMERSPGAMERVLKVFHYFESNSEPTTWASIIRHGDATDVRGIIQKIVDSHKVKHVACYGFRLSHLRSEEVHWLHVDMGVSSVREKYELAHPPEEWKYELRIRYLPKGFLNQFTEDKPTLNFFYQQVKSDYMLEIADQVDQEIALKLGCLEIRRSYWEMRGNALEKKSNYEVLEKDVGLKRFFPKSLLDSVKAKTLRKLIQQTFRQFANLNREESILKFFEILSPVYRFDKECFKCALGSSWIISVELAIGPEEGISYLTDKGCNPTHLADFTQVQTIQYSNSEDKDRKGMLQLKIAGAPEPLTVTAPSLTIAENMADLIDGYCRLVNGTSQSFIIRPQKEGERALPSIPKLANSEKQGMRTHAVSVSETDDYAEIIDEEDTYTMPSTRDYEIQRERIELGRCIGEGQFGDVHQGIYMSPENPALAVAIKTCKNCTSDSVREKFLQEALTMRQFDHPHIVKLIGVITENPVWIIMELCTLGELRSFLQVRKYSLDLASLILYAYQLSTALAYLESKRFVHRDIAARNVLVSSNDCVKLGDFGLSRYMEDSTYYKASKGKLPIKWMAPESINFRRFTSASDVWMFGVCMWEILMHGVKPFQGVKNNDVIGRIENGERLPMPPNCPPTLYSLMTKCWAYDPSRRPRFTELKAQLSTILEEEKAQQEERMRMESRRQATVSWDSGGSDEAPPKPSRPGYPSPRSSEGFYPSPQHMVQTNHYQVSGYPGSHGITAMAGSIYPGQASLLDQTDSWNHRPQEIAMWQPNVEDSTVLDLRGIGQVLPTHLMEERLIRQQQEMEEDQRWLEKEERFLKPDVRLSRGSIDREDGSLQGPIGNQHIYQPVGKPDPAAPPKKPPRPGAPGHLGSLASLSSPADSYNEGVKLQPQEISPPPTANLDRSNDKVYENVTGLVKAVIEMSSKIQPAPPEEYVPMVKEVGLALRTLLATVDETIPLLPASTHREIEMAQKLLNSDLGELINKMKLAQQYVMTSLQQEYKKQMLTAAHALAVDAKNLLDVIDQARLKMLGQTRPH
# test-summary: KINOMEscan ScanTK
# Format: binding
# experimental-context: @1000nM
The following molecules are shown together with reported difference in %Control versus compound Ib at 1 µM values.
observed-property: difference in %Control versus compound Ib at 1 µM (%)

INSERT INTO results (molecule, target, observed_value) VALUES
  ('CCOC(=O)c1cnc(S(C)(=O)=O)nc1N1CCC[C@@H](n2nc(-c3ccc(Oc4ccccc4)cc3)c3c(N)ncnc32)C1', 'FAK (Homo sapiens)', -4),
  ('Cc1cnc(S(C)(=O)=O)nc1N1CCCC(n2nc(-c3ccc(Oc4ccccc4)cc3)c3c(N)ncnc32)C1 (stereo not shown)', 'FAK (Homo sapiens)', -1),
  ('CNC(=O)c1cnc(S(C)(=O)=O)nc1N1CCCC(n2nc(-c3ccc(Oc4ccccc4)cc3)c3c(N)ncnc32)C1 (stereo not shown)', 'FAK (Homo sapiens)', 0),
  ('COC(=O)c1cnc(S(C)(=O)=O)nc1N1CCCC(n2nc(-c3ccc(Oc4ccccc4)cc3)c3c(N)ncnc32)C1 (stereo not shown)', 'FAK (Homo sapiens)', 0);

* * *

# target: VEGFR2 (Homo sapiens, UniProt P35968)
# Construct: purchased Eurofins DiscoverX KINOMEscan (scanTK)
# Sequence (P35968 20-1356): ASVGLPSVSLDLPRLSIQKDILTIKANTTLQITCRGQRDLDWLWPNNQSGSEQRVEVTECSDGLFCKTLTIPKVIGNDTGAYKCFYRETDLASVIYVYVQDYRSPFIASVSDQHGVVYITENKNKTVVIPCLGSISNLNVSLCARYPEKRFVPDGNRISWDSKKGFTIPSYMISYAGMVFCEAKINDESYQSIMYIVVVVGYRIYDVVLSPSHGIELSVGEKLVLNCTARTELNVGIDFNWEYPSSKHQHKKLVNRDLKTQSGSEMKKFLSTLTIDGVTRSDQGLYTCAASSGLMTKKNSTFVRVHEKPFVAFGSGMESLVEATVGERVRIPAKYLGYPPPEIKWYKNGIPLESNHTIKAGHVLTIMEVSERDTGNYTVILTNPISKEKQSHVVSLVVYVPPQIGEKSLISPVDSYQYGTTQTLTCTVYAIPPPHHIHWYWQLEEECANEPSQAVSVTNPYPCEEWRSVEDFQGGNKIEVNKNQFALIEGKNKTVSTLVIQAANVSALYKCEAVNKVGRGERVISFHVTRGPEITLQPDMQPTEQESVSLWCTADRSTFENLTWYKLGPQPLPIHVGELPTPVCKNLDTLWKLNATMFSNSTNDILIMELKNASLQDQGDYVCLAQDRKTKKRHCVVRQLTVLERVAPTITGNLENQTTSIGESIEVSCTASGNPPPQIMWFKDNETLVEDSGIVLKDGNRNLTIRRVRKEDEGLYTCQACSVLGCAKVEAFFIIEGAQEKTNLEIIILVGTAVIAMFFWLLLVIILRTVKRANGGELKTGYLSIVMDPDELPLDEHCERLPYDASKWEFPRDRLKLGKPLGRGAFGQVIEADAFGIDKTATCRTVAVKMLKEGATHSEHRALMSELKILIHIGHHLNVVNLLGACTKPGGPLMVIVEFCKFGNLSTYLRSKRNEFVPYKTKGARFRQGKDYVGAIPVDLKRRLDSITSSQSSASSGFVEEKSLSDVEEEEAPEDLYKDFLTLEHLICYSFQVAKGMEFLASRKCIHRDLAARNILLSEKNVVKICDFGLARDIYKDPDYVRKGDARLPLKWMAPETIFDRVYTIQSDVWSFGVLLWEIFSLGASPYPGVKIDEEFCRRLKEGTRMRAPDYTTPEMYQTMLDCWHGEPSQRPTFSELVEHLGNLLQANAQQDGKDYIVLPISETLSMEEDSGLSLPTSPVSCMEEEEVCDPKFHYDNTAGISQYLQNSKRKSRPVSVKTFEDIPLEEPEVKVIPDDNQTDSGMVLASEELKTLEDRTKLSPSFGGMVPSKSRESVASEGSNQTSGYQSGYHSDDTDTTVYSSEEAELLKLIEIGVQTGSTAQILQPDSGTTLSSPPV
# test-summary: KINOMEscan ScanTK
# Type: binding
# experimental-context: read-out: %Control @1000nM
Items are presented alongside their recorded remaining binding at 1 µM.
observed-property: remaining binding at 1 µM

INSERT INTO assay_data (compound, observed_value) VALUES
  ('CCOC(=O)c1cnc(S(C)(=O)=O)nc1N1CCC[C@@H](n2nc(-c3ccc(Oc4ccccc4)cc3)c3c(N)ncnc32)C1 [Compound 8c]', '94%'),
  ('Cc1cnc(S(C)(=O)=O)nc1N1CCCC(n2nc(-c3ccc(Oc4ccccc4)cc3)c3c(N)ncnc32)C1 (centres unmarked) [Compound 8a]', '90%'),
  ('CNC(=O)c1cnc(S(C)(=O)=O)nc1N1CCCC(n2nc(-c3ccc(Oc4ccccc4)cc3)c3c(N)ncnc32)C1 (centres unmarked) [Compound 8d]', '88%'),
  ('C=CC(=O)N1CCC[C@@H](n2nc(-c3ccc(Oc4ccccc4)cc3)c3c(N)ncnc32)C1 [Compound 1g, Ibrutinib, reference compound]', '71%'),
  ('COC(=O)c1cnc(S(C)(=O)=O)nc1N1CCCC(n2nc(-c3ccc(Oc4ccccc4)cc3)c3c(N)ncnc32)C1 (centres unmarked) [Compound 8b]', '90%');

* * *

# target: FER (Homo sapiens)
# Construct: purchased Eurofins DiscoverX KINOMEscan (scanTK)
# Sequence (P16591 whole entry): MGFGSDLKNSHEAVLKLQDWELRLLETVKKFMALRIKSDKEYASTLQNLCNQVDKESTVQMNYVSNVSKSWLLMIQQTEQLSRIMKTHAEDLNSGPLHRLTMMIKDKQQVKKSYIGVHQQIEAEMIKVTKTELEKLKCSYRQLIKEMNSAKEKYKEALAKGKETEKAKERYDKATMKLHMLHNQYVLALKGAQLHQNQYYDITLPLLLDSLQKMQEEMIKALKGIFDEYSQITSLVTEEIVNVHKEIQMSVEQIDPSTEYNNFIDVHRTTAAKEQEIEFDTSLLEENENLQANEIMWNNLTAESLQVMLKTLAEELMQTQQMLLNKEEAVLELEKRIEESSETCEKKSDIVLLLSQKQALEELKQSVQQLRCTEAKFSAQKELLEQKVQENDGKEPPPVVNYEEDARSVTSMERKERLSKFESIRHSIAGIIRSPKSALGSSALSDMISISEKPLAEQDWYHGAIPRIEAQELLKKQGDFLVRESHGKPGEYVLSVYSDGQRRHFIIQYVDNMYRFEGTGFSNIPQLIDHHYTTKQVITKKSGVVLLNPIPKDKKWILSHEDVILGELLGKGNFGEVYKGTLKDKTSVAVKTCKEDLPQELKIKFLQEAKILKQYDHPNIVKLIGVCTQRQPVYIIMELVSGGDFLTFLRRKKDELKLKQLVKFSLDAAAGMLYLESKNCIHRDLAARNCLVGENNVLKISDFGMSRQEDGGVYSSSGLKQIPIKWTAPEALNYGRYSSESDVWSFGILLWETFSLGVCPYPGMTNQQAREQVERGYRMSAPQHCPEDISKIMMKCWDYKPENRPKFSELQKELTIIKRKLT
# test-summary: KINOMEscan ScanTK
# Assay type: binding
# experimental-context: @1000nM
observed-property: difference in %Control versus compound Ib at 1 µM (%)

INSERT INTO assay_data (molecule, observed_value) VALUES
  ('COC(=O)c1cnc(S(C)(=O)=O)nc1N1CCCC(n2nc(-c3ccc(Oc4ccccc4)cc3)c3c(N)ncnc32)C1 (stereo not shown) [Compound 8b]', -10),
  ('CCOC(=O)c1cnc(S(C)(=O)=O)nc1N1CCC[C@@H](n2nc(-c3ccc(Oc4ccccc4)cc3)c3c(N)ncnc32)C1 [Compound 8c]', 0),
  ('CNC(=O)c1cnc(S(C)(=O)=O)nc1N1CCCC(n2nc(-c3ccc(Oc4ccccc4)cc3)c3c(N)ncnc32)C1 (stereo not shown) [Compound 8d]', 0),
  ('Cc1cnc(S(C)(=O)=O)nc1N1CCCC(n2nc(-c3ccc(Oc4ccccc4)cc3)c3c(N)ncnc32)C1 (stereo not shown) [Compound 8a]', 0);

* * *

This listing pairs compounds with measured difference in %Control from reference compound Ib at 1 µM.
# target: EGFR(E746-A750del) (Homo sapiens, UniProt P00533, DEL746-750)
# Construct: purchased Eurofins DiscoverX KINOMEscan (scanTK)
# Sequence (P00533 with tags, fused parts or gaps DEL746-750 limits assumed): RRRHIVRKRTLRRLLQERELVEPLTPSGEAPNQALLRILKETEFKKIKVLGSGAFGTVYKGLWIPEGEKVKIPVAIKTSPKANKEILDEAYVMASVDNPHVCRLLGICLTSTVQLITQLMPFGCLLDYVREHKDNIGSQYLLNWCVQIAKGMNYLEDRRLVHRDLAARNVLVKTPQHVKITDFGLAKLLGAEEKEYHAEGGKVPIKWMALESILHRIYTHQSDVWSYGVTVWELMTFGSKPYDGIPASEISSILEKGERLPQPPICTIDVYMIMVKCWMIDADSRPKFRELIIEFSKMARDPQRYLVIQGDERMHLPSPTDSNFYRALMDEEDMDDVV
# test-summary: KINOMEscan ScanTK
# Format: binding
# experimental-context: @1000nM
observed-property: difference in %Control from reference compound Ib at 1 µM (%)

INSERT INTO assay_data (compound, unit_symbol, observed_value) VALUES
  ('CCOC(=O)c1cnc(S(C)(=O)=O)nc1N1CCC[C@@H](n2nc(-c3ccc(Oc4ccccc4)cc3)c3c(N)ncnc32)C1', '%', 89),
  ('COC(=O)c1cnc(S(C)(=O)=O)nc1N1CCCC(n2nc(-c3ccc(Oc4ccccc4)cc3)c3c(N)ncnc32)C1 (stereo not shown)', '%', 73),
  ('CNC(=O)c1cnc(S(C)(=O)=O)nc1N1CCCC(n2nc(-c3ccc(Oc4ccccc4)cc3)c3c(N)ncnc32)C1 (stereo not shown)', '%', 74),
  ('Cc1cnc(S(C)(=O)=O)nc1N1CCCC(n2nc(-c3ccc(Oc4ccccc4)cc3)c3c(N)ncnc32)C1 (stereo not shown)', '%', 88);

* * *

# target: BMX (Homo sapiens, UniProt P51813)
# Construct: purchased Eurofins DiscoverX KINOMEscan (scanTK)
# Sequence (P51813 1-675): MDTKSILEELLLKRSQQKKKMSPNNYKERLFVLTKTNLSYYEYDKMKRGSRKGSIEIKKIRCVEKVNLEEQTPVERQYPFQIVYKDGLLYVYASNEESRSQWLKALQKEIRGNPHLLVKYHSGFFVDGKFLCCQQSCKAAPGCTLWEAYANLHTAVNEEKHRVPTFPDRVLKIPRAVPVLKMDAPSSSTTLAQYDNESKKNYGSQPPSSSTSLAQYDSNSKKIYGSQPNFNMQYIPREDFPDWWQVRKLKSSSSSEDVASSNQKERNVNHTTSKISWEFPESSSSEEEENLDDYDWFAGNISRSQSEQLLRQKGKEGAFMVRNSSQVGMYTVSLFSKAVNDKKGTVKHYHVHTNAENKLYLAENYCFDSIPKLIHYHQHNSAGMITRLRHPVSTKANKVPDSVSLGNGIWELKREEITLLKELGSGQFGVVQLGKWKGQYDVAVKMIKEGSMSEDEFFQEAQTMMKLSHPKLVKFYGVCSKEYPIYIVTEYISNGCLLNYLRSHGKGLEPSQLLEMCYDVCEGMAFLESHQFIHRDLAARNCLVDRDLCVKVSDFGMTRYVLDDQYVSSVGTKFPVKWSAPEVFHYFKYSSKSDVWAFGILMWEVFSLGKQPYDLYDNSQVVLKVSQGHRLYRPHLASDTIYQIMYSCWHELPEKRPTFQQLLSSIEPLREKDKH
# test-summary: KINOMEscan ScanTK
# Format: binding
# experimental-context: @1000nM
Recorded difference in %Control versus compound Ib at 1 µM values for a group of compounds are listed next.
observed-property: difference in %Control versus compound Ib at 1 µM (%)

INSERT INTO assay_data (compound, unit_symbol, observed_value) VALUES
  ('CCOC(=O)c1cnc(S(C)(=O)=O)nc1N1CCC[C@@H](n2nc(-c3ccc(Oc4ccccc4)cc3)c3c(N)ncnc32)C1', '%', 28),
  ('Cc1cnc(S(C)(=O)=O)nc1N1CCCC(n2nc(-c3ccc(Oc4ccccc4)cc3)c3c(N)ncnc32)C1 (stereo not shown)', '%', -3),
  ('COC(=O)c1cnc(S(C)(=O)=O)nc1N1CCCC(n2nc(-c3ccc(Oc4ccccc4)cc3)c3c(N)ncnc32)C1 (stereo not shown)', '%', 12),
  ('CNC(=O)c1cnc(S(C)(=O)=O)nc1N1CCCC(n2nc(-c3ccc(Oc4ccccc4)cc3)c3c(N)ncnc32)C1 (stereo not shown)', '%', 20);

* * *

# target: EGFR(E746-A750del) (Homo sapiens, UniProt P00533, DEL746-750)
# Construct: purchased Eurofins DiscoverX KINOMEscan (scanTK)
# test-summary: KINOMEscan ScanTK
# Type: binding
# experimental-context: @1000nM, read-out: %Control
# remaining binding at 1 µM per entry
observed-property: remaining binding at 1 µM (%)

INSERT INTO results (compound, observed_property, unit_symbol, observed_value) VALUES
  ('Cc1cnc(S(C)(=O)=O)nc1N1CCCC(n2nc(-c3ccc(Oc4ccccc4)cc3)c3c(N)ncnc32)C1 (stereo not shown)', 'remaining binding at 1 µM', '%', 99),
  ('COC(=O)c1cnc(S(C)(=O)=O)nc1N1CCCC(n2nc(-c3ccc(Oc4ccccc4)cc3)c3c(N)ncnc32)C1 (stereo not shown)', 'remaining binding at 1 µM', '%', 84),
  ('CNC(=O)c1cnc(S(C)(=O)=O)nc1N1CCCC(n2nc(-c3ccc(Oc4ccccc4)cc3)c3c(N)ncnc32)C1 (stereo not shown)', 'remaining binding at 1 µM', '%', 85),
  ('CCOC(=O)c1cnc(S(C)(=O)=O)nc1N1CCC[C@@H](n2nc(-c3ccc(Oc4ccccc4)cc3)c3c(N)ncnc32)C1', 'remaining binding at 1 µM', '%', 100);

* * *

# target: BRK (Homo sapiens)
# Construct: purchased Eurofins DiscoverX KINOMEscan (scanTK)
# Sequence (Q13882 whole entry): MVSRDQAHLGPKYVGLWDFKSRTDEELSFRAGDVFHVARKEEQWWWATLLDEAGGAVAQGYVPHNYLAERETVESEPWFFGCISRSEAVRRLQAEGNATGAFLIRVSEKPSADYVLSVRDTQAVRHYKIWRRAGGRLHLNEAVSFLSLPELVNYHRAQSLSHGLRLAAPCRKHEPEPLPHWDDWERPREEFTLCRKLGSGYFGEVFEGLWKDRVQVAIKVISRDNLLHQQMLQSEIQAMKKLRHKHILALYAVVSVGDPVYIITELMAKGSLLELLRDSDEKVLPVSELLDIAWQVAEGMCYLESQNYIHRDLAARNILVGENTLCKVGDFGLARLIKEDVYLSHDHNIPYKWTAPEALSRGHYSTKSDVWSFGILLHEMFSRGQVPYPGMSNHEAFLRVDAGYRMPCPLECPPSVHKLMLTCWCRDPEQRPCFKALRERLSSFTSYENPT
# test-summary: KINOMEscan ScanTK
# Type: binding
# experimental-context: read-out: %Control @1000nM
observed-property: remaining binding at 1 µM (%)

INSERT INTO assay_data (compound, observed_value) VALUES
  ('C=CC(=O)N1CCC[C@@H](n2nc(-c3ccc(Oc4ccccc4)cc3)c3c(N)ncnc32)C1 [Compound 1g, Ibrutinib, reference compound]', 1.3),
  ('CCOC(=O)c1cnc(S(C)(=O)=O)nc1N1CCC[C@@H](n2nc(-c3ccc(Oc4ccccc4)cc3)c3c(N)ncnc32)C1 [Compound 8c]', 54),
  ('COC(=O)c1cnc(S(C)(=O)=O)nc1N1CCCC(n2nc(-c3ccc(Oc4ccccc4)cc3)c3c(N)ncnc32)C1 (centres unmarked) [Compound 8b]', 42),
  ('Cc1cnc(S(C)(=O)=O)nc1N1CCCC(n2nc(-c3ccc(Oc4ccccc4)cc3)c3c(N)ncnc32)C1 (centres unmarked) [Compound 8a]', 15),
  ('CNC(=O)c1cnc(S(C)(=O)=O)nc1N1CCCC(n2nc(-c3ccc(Oc4ccccc4)cc3)c3c(N)ncnc32)C1 (centres unmarked) [Compound 8d]', 15);
